Tested on: CCRIS mutagenicity, Ames/micronucleus/aberration tests
Experiment: CCRIS mutagenicity studies
Settings: Test System: AMES SALMONELLA TYPHIMURIUM; Strain/Indicator: TA98; Metabolic Activation: RAT, LIVER, S-9; Method: PREINCUBATION
Activity calls are given as the source filed them. No rule for the calls is given here.
Assay readout: mutagenic call

Answered examples (5):
# Structure, Experimental system, mutagenic call
data = [
    ("CN(C)c1ccc(N=Nc2ccc3ncsc3c2)cc1", "CCRIS mutagenicity, Ames/micronucleus/aberration tests", "active; positive"),
    ("CCOC(=O)[C@H]1O[C@@H]1C(=O)N[C@@H](CC(C)C)C(=O)NCCC(C)C", "CCRIS mutagenicity, Ames/micronucleus/aberration tests", "inactive; negative"),
    ("C=C[C@H]1CN2CC[C@H]1C[C@H]2[C@H](OC(=O)OCC)c1ccnc2ccc(OC)cc12", "CCRIS mutagenicity, Ames/micronucleus/aberration tests", "inactive; negative"),
    ("CC(=O)Nc1ccc2c(c1)Cc1ccccc1-2", "CCRIS mutagenicity, Ames/micronucleus/aberration tests", "active; positive"),
    ("CC(C)(C)C1=CC(=CC=C2C=C(C(C)(C)C)C(=O)C(C(C)(C)C)=C2)C=C(C(C)(C)C)C1=O", "CCRIS mutagenicity, Ames/micronucleus/aberration tests", "inactive; negative"),
]

Asked: Could you share which mutagenic call value was measured for Cc1cc(C(C)(C)C)c(O)c(C(C)(C)C)c1 ?
Given back: inactive; negative

###

Tested on: CCRIS mutagenicity, Ames/micronucleus/aberration tests
Test: CCRIS mutagenicity studies
Settings: Test System: AMES SALMONELLA TYPHIMURIUM; Strain/Indicator: TA1535; Metabolic Activation: HAMSTER, LIVER, S-9, AROCLOR 1254 (30%); Method: PREINCUBATION
Active and inactive are the calls of the source. No rule for the calls is given here.
I would appreciate it if you answered using one of these outcomes: label 1 (active), label 0 (inactive)

Asked: Hi team, can someone confirm the assay call for O=C(OCC1CO1)C1CCCCC1C(=O)OCC1CO1 (stereo not given) ?
Given back: label 1

###

System: CCRIS mutagenicity, Ames/micronucleus/aberration tests
Test: CCRIS mutagenicity studies
Conditions: Test System: AMES SALMONELLA TYPHIMURIUM; Strain/Indicator: TA2637; Metabolic Activation: NONE; Method: STANDARD PLATE
Calls of active or inactive are those of the source. The rule behind the calls is not given here.
API: response.call in active, inactive

Solved entries:
# Compound, Experimental system, Class label
records = [
    ("CC(C)(C)CBr", "CCRIS mutagenicity, Ames/micronucleus/aberration tests", "inactive"),
    ("CC1(C)CCC[C@]2(C)C(C=O)C(C=O)=CC[C@@H]12 (stereo partly specified)", "CCRIS mutagenicity, Ames/micronucleus/aberration tests", "inactive"),
    ("CC1(C)CC2=C(C=O)[C@]3(C=O)C[C@]3(C)[C@@H](O)[C@@H]2C1", "CCRIS mutagenicity, Ames/micronucleus/aberration tests", "inactive"),
    ("COc1cccc2c1C(=O)c1c(O)c3c(c(O)c1C2=O)C[C@@](O)(C(=O)CO)C[C@@H]3O[C@H]1C[C@H](N)[C@H](OC)[C@H](C)O1", "CCRIS mutagenicity, Ames/micronucleus/aberration tests", "active"),
    ("CC1(C)C[C@H]2C=C(C=O)[C@]3(C=O)C[C@]3(C)[C@H]2C1", "CCRIS mutagenicity, Ames/micronucleus/aberration tests", "active"),
]

Here is the next item to consider.
Asked: Hello, I am checking results. What call was entered for CC(=O)O[C@H]1C[C@@H]2[C@@]3(C)CCCC(C)(C)[C@@H]3CC[C@@]2(C)[C@@H]2CC=C(C=O)[C@H](C=O)[C@@]12C ?
Given back: inactive

###

System: CCRIS mutagenicity, Ames/micronucleus/aberration tests
Experiment: CCRIS mutagenicity studies
Settings: Test System: MOUSE LYMPHOMA; Strain/Indicator: L5178Y (TK+/TK-); Metabolic Activation: RAT, LIVER, S-9, AROCLOR 1254; Method: SUSPENSION/PLATE
The source made the active and inactive calls. The rule behind the calls is not given here.
The categories you may choose from are YES for active, NO for inactive

Here are 6 compounds together with their reported answers.
# Compound, Class label
records = [
    ("C[Si](C)(C)O[Si](C)(C)O[Si](C)(C)C", "NO"),
    ("CCCCC/C=C/C=C/C=O", "NO"),
    ("CCO", "NO"),
    ("CN(C)[C@@H]1C(=O)C(C(N)=O)=C(O)[C@@]2(O)C(=O)C3=C(O)c4c(O)cccc4[C@@](C)(O)[C@H]3[C@H](O)[C@@H]12", "YES"),
    ("O=C(O)CCC(=O)OC[C@@H](NC(=O)C(Cl)Cl)[C@H](O)c1ccc([N+](=O)[O-])cc1", "YES"),
    ("COc1ccc(-c2coc3cc(O)cc(O)c3c2=O)cc1", "YES"),
]

Asked: Would you mind telling me which call this test gave Cc1nnc(NS(=O)(=O)c2ccc(N)cc2)s1 ?
Given back: NO

###

System: CCRIS mutagenicity, Ames/micronucleus/aberration tests
Experiment: CCRIS mutagenicity studies
Settings: Test System: AMES SALMONELLA TYPHIMURIUM; Strain/Indicator: TA97; Metabolic Activation: NONE; Method: STANDARD PLATE
Activity calls are given as the source filed them. How the calls were made is not given here.
Allowed answers: active, inactive

The examples below pair each entry with its known result.
# Compound, Class label
data = [
    ("CC(Oc1ccc(Cl)cc1Cl)C(=O)O (stereo not given)", "inactive"),
    ("CC(C)(C)CBr", "inactive"),
]

Asked: Tell me the recorded outcome of this test for CC(F)(F)F .
Given back: inactive

Asked: Answer briefly: the call reported for Cn1cnc2c(N)ncnc21 in this assay.
Given back: inactive

Asked: Fill in: this test's call for c1cc2ccc3ccc4ccc5cccc6c(c1)c2c3c4c56 is ___
Given back: inactive

Asked: Outcome logged for C[C@@H]1O[C@@H](O[C@H]2[C@H](O[C@H]3[C@H](O[C@H]4CC[C@@]5(C)[C@@H](CC[C@]6(C)[C@@H]5CC=C5[C@@H]7CC(C)(C)C[C@@H](O)[C@]7(C)CC[C@]56C)[C@@]4(C)CO)O[C@H](C(=O)O)[C@@H](O)[C@@H]3O)O[C@H](CO)[C@H](O)[C@@H]2O)[C@H](O)[C@H](O)[C@H]1O in this assay:
Given back: inactive

Asked: GET /call?item= CN(C)CCn1cc[n+](C)c1/C=N/O returns the recorded outcome of this test.
Given back: inactive

Asked: # lookup: test call for CN1CCCC1=O
Given back: inactive

Asked: How did this test come out for CC(C)CCC[C@@H](C)[C@H]1CC[C@H]2[C@@H]3C[C@@H](O)[C@@]4(O)C[C@@H](O)CC[C@]4(C)[C@H]3CC[C@]12C ?
Given back: active

Asked: What call does the record list for Cc1cc(Cl)ccc1OCCCC(=O)O ?
Given back: inactive

###

Test system: CCRIS mutagenicity, Ames/micronucleus/aberration tests
Experiment: CCRIS mutagenicity studies
Conditions: Test System: AMES SALMONELLA TYPHIMURIUM; Strain/Indicator: TA97A; Metabolic Activation: NONE; Method: PREINCUBATION
The source made the active and inactive calls. No rule for the calls is given here.
API: response.call in True (active), False (inactive)

Example entries begin here.
# Compound, Class label
measured = [
    ("Cc1cc2ccccc2c2ccc3c(c12)C=CC(=O)C3=O", "True"),
    ("c1ccc2c3c(ccc2c1)-c1cccc2cccc-3c12", "False"),
    ("OC1c2ccc3c(c2C2OC2C1O)-c1cccc2cccc-3c12 (stereo unspecified)", "True"),
]

Asked: Entry OC1C=Cc2c(ccc3c2-c2cccc4cccc-3c24)C1O (stereo unspecified) : call = ?
Given back: False

Asked: GET /call?item= CCC(=O)O returns the recorded outcome of this test.
Given back: False

Asked: In this assay, the call recorded for O=C1OC2(c3ccccc31)c1cc(I)c(O)c(I)c1Oc1c2cc(I)c(O)c1I was what?
Given back: False

###

Test system: CCRIS mutagenicity, Ames/micronucleus/aberration tests
Assay: CCRIS mutagenicity studies
Conditions: Test System: AMES SALMONELLA TYPHIMURIUM; Strain/Indicator: TA98; Metabolic Activation: NONE; Method: PREINCUBATION
Active and inactive are the calls of the source. No rule for the calls is given here.
Assay readout: mutagenic call

Some entries whose results are on file:
# Compound, Experimental system, mutagenic call
rows = [
    ("O=C1OC(=O)c2ccccc21", "CCRIS mutagenicity, Ames/micronucleus/aberration tests", "inactive; negative"),
    ("CN(C)[C@@H]1C(=O)C(C(N)=O)=C(O)[C@@]2(O)C(=O)C3=C(O)c4c(O)cccc4[C@@](C)(O)[C@H]3[C@H](O)[C@@H]12", "CCRIS mutagenicity, Ames/micronucleus/aberration tests", "inactive; negative"),
    ("[Be+2]", "CCRIS mutagenicity, Ames/micronucleus/aberration tests", "inactive; negative"),
    ("CC(=O)Nc1ccc2ccccc2n1", "CCRIS mutagenicity, Ames/micronucleus/aberration tests", "inactive; negative"),
    ("Nc1ccc([N+](=O)[O-])cc1O", "CCRIS mutagenicity, Ames/micronucleus/aberration tests", "active; positive"),
]

Asked: Using the record for Cl[C@@H]1C2(Cl)C3C4[C@@H]5O[C@@H]5[C@H]5C3[C@@](Cl)(C2(Cl)Cl)[C@]1(Cl)[C@@H]45 (some centres not stated) , report its mutagenic call.
Given back: inactive; negative

Asked: What value of mutagenic call has been recorded for this entry: O=C(O)CCC(=O)OC[C@@H](NC(=O)C(Cl)Cl)[C@H](O)c1ccc([N+](=O)[O-])cc1
Given back: inactive; negative

Asked: Please look up its mutagenic call: Nc1ccc(Oc2ccc([N+](=O)[O-])cc2)cc1
Given back: active; positive

Asked: Which mutagenic call value belongs to CC(=O)Nc1ccc(C)c(N)c1 ?
Given back: inactive; negative

Asked: Entry CN(C)Cc1ccccc1 : reported mutagenic call = ?
Given back: inactive; negative

Asked: Quick one: mutagenic call of Cc1ccc(N)c([N+](=O)[O-])c1 ?
Given back: inactive; negative

Asked: I'd like to know its mutagenic call. The compound in question is CNc1ccc2ncc(C)nc2c1N
Given back: inactive; negative
